- Tgt: HLA-C*04:01
- Measurement Protocol: IEDB peptide-MHC binding, purified MHC/direct/fluorescence; filed as Kd, often an IC50 or EC50 that approximates it; bounds were set here for any values at or beyond the usual limits of such assays
- Study Conditions: source organism: Bacillus anthracis str. CDC 684
pKd: −log10 of the molar value.
Endpoint Name: pKd

# input For AYPKWKFFL , what is its reported pKd?
# output ≤ 4.70

---

- Tgt: HLA-A*02:02
- Measurement Protocol: IEDB peptide-MHC binding, purified MHC/competitive/radioactivity; filed as Kd, often an IC50 or EC50 that approximates it; bounds were set here for any values at or beyond the usual limits of such assays
- Study Conditions: source organism: Vaccinia virus WR
Overview of recorded pKd for various sequences
To interpret pKd, take it as minus log10 of a concentration measured in moles per litre.

Please review the following examples before continuing.
> print(dat)
   entry.sequence          tgt  result.value
1      PLTGNNTITT  HLA-A*02:02          5.12
2       GVEVRYIDI  HLA-A*02:02          4.92
3      SMSQELAELL  HLA-A*02:02          8.21

// below: pKd requested for another sequence
# input Write down the reported pKd of TIEDDKIVTM , test system: HLA-A*02:02.
# output 4.77

The measurements presented in this section are drawn from the Immune Epitope Database (IEDB).
